Reported IC50 is given for each of the following molecules.
Target: UniProt:Q9Z1M0
Sequence (Q9Z1M0 whole entry): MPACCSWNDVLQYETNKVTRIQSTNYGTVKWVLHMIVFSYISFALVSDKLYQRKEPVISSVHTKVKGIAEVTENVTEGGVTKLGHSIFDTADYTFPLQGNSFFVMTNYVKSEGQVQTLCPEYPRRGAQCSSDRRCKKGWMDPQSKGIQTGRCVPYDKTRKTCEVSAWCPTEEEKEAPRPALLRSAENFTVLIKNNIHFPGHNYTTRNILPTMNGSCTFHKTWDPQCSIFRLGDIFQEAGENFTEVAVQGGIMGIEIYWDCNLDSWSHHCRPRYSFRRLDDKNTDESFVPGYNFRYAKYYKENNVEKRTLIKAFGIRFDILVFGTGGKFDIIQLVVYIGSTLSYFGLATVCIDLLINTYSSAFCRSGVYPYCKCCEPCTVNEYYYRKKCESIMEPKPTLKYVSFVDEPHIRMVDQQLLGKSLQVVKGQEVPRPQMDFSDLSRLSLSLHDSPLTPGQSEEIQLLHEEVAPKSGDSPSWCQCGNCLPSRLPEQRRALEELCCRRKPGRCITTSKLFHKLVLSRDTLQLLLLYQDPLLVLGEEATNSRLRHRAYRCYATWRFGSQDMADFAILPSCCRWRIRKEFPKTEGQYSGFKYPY
Assay: Antagonist activity at P2X7 receptor in Swiss mouse peritoneal macrophages assessed as inhibition of BzATP-induced ethidium iodide uptake after 30 mins by spectrofluorometric analysis
assay_endpoint: IC50 (nM)

[[record]]
molecule = "CCOc1ccc(Nc2ccc(/C(=C3C=C/C(=[N+](/CC)Cc4cccc(S(=O)(=O)[O-])c4)C=C/3C)c3ccc(N(CC)Cc4cccc(S(=O)(=O)[O-])c4)cc3C)cc2)cc1.[Na+]"
unit_abbrev = "nM"
experimental_result = 432

[[record]]
molecule = "CCOCc1cn(-c2ccc(Cl)cc2)nn1"
unit_abbrev = "nM"
experimental_result = 59.2

[[record]]
molecule = "COc1ccc(CC(=O)NC(N/C(=N/C#N)Nc2cccc3ncccc23)C(C)(C)C)cc1OC (stereo not drawn)"
unit_abbrev = "nM"
experimental_result = 63.3


###

target: UniProt Q99572; assay: Antagonist activity at human P2X7 receptor expressed in HEK293 cells assessed as inhibition of ATP-induced ethidium iodide uptake at 10 uM preincubated for 10 mins followed by ATP addition measured after 20 mins by FLIPR assay relative to 1 mM ATP; assay type: cell-based
Reported inhibition is given for each of the following compounds.
assay_endpoint: inhibition (%)

[[record]]
smi = "OCc1cn(-c2cc(Cl)ccc2Cl)nn1"
experimental_result = 38.1

[[record]]
smi = "O=C(OCc1cn(-c2ccc(Cl)cc2)nn1)c1ccccc1"
experimental_result = 26.8

[[record]]
smi = "CCCCOCc1cn(-c2ccc(Cl)cc2)nn1"
experimental_result = 15.1

[[record]]
smi = "COc1ccc(-n2cc(COC(=O)c3ccccc3)nn2)cc1"
experimental_result = 10.6

[[record]]
smi = "CCCOCc1cn(-c2ccc(Cl)cc2)nn1"
experimental_result = 62.4

[[record]]
smi = "O=Cc1cnn(-c2ccccc2)n1"
experimental_result = 42.1

[[record]]
smi = "CCOCc1cn(-c2ccc(Cl)cc2)nn1"
experimental_result = 96.9

[[record]]
smi = "OCc1cn(-c2cc(Cl)cc(Cl)c2)nn1"
experimental_result = 41.1

[[record]]
smi = "CC(=O)OCc1cn(-c2ccc(Cl)cc2)nn1"
experimental_result = 9.89

[[record]]
smi = "CCCCOCc1cn(-c2cc(Cl)ccc2Cl)nn1"
experimental_result = 90.1

[[record]]
smi = "O=C(OCc1cn(-c2cc(Cl)ccc2Cl)nn1)C1CCCC1"
experimental_result = 7.28

[[record]]
smi = "CC(=O)OCc1cn(-c2cc(Cl)cc(Cl)c2)nn1"
experimental_result = 29.4

[[record]]
smi = "CCCCCCCCCC(=O)OCc1cn(-c2ccccc2)nn1"
experimental_result = 23.2

[[record]]
smi = "O=C(OCc1cn(-c2ccccc2)nn1)c1ccccc1"
experimental_result = 16.1

[[record]]
smi = "O/N=C/c1cnn(-c2ccccc2)n1"
experimental_result = 94.3

[[record]]
smi = "CCOCc1cn(-c2ccccc2)nn1"
experimental_result = 56.7

[[record]]
smi = "OCc1cn(-c2ccccc2)nn1"
experimental_result = 30.1

[[record]]
smi = "O=C(OCc1cn(-c2cc(Cl)ccc2Cl)nn1)c1ccccc1"
experimental_result = 3

[[record]]
smi = "CCOCc1cn(-c2cc(Cl)cc(Cl)c2)nn1"
experimental_result = 51.2

[[record]]
smi = "O=C(OCc1cnn(-c2ccccc2)n1)c1ccccc1"
experimental_result = 88.2

[[record]]
smi = "CCCCOCc1cn(-c2ccccc2)nn1"
experimental_result = 67.5

[[record]]
smi = "CCCOCc1cn(-c2ccccc2)nn1"
experimental_result = 20.1

[[record]]
smi = "CCCCOCc1cn(-c2ccc(OC)cc2)nn1"
experimental_result = 51.3

[[record]]
smi = "CC(=O)OCc1cn(-c2ccccc2)nn1"
experimental_result = 81

[[record]]
smi = "CCCOCc1cn(-c2ccc(OC)cc2)nn1"
experimental_result = 35.8

[[record]]
smi = "COc1ccc(-n2cc(COC(C)=O)nn2)cc1"
experimental_result = 9.12

[[record]]
smi = "CC(=O)OCc1cnn(-c2ccccc2)n1"
experimental_result = 80.1

[[record]]
smi = "CCCCCC(=O)OCc1cn(-c2ccccc2)nn1"
experimental_result = 18.2


###

Molecular target: P2X purinoceptor 7 (Homo sapiens)
Sequence (whole entry): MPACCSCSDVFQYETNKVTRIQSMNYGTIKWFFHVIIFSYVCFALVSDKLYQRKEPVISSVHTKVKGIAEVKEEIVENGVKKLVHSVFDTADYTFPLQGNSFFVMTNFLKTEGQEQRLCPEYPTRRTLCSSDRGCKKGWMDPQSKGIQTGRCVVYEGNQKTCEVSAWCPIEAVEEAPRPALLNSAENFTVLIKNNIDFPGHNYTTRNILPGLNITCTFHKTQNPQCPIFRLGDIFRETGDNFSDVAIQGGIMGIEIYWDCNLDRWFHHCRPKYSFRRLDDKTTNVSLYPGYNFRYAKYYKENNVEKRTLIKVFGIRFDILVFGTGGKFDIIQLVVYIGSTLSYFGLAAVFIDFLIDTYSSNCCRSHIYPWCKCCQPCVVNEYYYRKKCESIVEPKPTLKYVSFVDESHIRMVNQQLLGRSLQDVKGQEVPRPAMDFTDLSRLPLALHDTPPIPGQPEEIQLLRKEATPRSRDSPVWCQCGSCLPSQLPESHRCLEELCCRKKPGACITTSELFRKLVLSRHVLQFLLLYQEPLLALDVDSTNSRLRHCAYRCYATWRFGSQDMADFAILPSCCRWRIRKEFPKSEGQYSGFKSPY
Assay: Antagonist activity at human P2X7 receptor expressed in HEK293 cells assessed as inhibition of ATP-induced ethidium iodide uptake at 10 uM preincubated for 10 mins followed by ATP addition measured after 20 mins by FLIPR assay relative to 1 mM ATP
Type: cell-based
Lab note: class by inhibition, see bin 0: < 3%; bin 1: ≥ 3% and < 50%; bin 2: ≥ 50%

[[record]]
smi = "CCCCCCCCCC(=O)OCc1cn(-c2cc(Cl)ccc2Cl)nn1"
label_class = "bin 0"

[[record]]
smi = "COc1ccc(-n2cc(CO)nn2)cc1"
label_class = "bin 2"

[[record]]
smi = "CCCCCC(=O)OCc1cn(-c2ccc(Cl)cc2)nn1"
label_class = "bin 0"

[[record]]
smi = "OCc1cn(-c2ccc(Cl)cc2)nn1"
label_class = "bin 1"

[[record]]
smi = "CC(=O)OCc1cn(-c2cc(Cl)ccc2Cl)nn1"
label_class = "bin 2"

[[record]]
smi = "CCCOCc1cn(-c2cc(Cl)cc(Cl)c2)nn1"
label_class = "bin 1"

[[record]]
smi = "CCCOCc1cn(-c2cc(Cl)ccc2Cl)nn1"
label_class = "bin 1"


###

biological target: UniProt:Q99572; experiment: Antagonist activity at human P2X7 receptor expressed in HEK293 cells assessed as inhibition of ATP-induced ethidium iodide uptake at 10 uM preincubated for 10 mins followed by ATP addition measured after 20 mins by FLIPR assay relative to 1 mM ATP; format: cell-based
assay_endpoint: inhibition (%)

[[record]]
smi = "CCOCc1cn(-c2ccc(OC)cc2)nn1"
experimental_result = 45

[[record]]
smi = "O/N=C/c1cn(-c2cc(Cl)cc(Cl)c2)nn1"
experimental_result = 62.1

[[record]]
smi = "O=C(OCc1cnn(-c2ccccc2)n1)C1CCCC1"
experimental_result = 10.2

[[record]]
smi = "CCCOCc1cnn(-c2ccccc2)n1"
experimental_result = 41.2

[[record]]
smi = "CCCCC(=O)OCc1cn(-c2ccc(OC)cc2)nn1"
experimental_result = 8.15

[[record]]
smi = "O/N=C/c1cn(-c2ccccc2)nn1"
experimental_result = 64.3

[[record]]
smi = "CCCCCCCCCC(=O)OCc1cnn(-c2ccccc2)n1"
experimental_result = 19.2

[[record]]
smi = "CCOCc1cnn(-c2ccccc2)n1"
experimental_result = 79.1

[[record]]
smi = "O=Cc1cn(-c2ccccc2)nn1"
experimental_result = 95.3

[[record]]
smi = "O=Cc1cn(-c2cc(Cl)ccc2Cl)nn1"
experimental_result = 44

[[record]]
smi = "OCc1cnn(-c2ccccc2)n1"
experimental_result = 90.2

[[record]]
smi = "CCCCOCc1cnn(-c2ccccc2)n1"
experimental_result = 16.1

[[record]]
smi = "CCOCc1cn(-c2cc(Cl)ccc2Cl)nn1"
experimental_result = 45.3

[[record]]
smi = "CCCCCCCCCC(=O)OCc1cn(-c2ccc(Cl)cc2)nn1"
experimental_result = 78

